These measurements were taken from patent US12006330B2.

molecular target: human orexin-2 receptor (OX2R) (Homo sapiens, UniProt O43614); assay: Human OX2R IP1 assay; details: T-Rex CHO cells stably overexpressing human OX2R; IP1 accumulation; 1 hr at 37 degrees C; mean EC50
Sequence (O43614 whole entry): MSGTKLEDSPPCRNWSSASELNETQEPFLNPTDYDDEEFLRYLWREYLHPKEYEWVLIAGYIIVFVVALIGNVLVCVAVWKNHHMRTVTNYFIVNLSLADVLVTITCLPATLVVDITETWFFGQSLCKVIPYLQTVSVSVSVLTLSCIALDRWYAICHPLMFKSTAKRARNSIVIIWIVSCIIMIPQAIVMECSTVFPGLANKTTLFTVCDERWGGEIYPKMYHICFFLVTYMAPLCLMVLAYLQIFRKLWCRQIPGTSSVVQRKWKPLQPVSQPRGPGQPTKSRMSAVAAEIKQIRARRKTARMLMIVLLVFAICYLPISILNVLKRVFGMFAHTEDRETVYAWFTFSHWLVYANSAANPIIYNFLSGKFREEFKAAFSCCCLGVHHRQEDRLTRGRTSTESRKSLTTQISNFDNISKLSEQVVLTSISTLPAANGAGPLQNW
Known EC50 of a selection of compounds

O=S(=O)(N[C@H]1CCCN2CCOc3ccccc3[C@H]3CC[C@H](CC3)OC[C@@H]12)C1CC1 (stereo in doubt) [Compound 51]    10 to 1000 nM
CCS(=O)(=O)N[C@H]1CCCN2CCOc3ccccc3[C@H]3CC[C@H](CC3)OC[C@@H]12 (stereo in doubt) [Compound 53]    > 1000 nM

// output EC50; input CC(C)S(=O)(=O)N[C@H]1CCN2C(=O)COc3ncccc3[C@H]3CC[C@H](CC3)OC[C@@H]12 (stereo in doubt) [Compound 101] ; system human orexin-2 receptor (OX2R) (Homo sapiens, UniProt O43614)
< 10 nM

---

test system: MDR1; experiment: MDCK-MDR1 permeability assay; type: in vitro ADME; settings: dog, MDCK-MDR1, MDCK-MDR1 cells; Papp B→A divided by Papp A→B; 3 μM; 2 hours; read-out: Efflux ratio (ER)
PROPERTY_LABEL: efflux ratio at 2 h, 3 μM

// known answers, use as guide
Cc1ccc2c(c1C)[C@H]1CC[C@H](CC1)OCC1[C@@H](NS(=O)(=O)C3CC3)CCCN1C(=O)CO2 (stereo in doubt)    27
C[C@@H](C(F)(F)F)S(=O)(=O)N[C@H]1CCCN2C(=O)COc3ccccc3C3CCC(CC3)OC[C@@H]12 (stereo in doubt)    43
CC(C)S(=O)(=O)N[C@H]1CCN2C(=O)COc3c(F)cc(F)cc3[C@H]3CC[C@H](CC3)OC[C@@H]12    2.5
CC(C)(C)S(=O)(=O)N[C@H]1CCCN2CCOc3ccccc3[C@H]3CC[C@H](CC3)OCC12 (stereo in doubt)    3.3
O=C1COc2ccccc2[C@H]2CC[C@H](CC2)OCC2[C@@H](NS(=O)(=O)CC3CC3)CCCN12 (stereo in doubt)    60
Cc1cccc2c1[C@H]1CC[C@H](CC1)OCC1[C@@H](NS(=O)(=O)C3CC3)CCN1C(=O)CO2 (stereo in doubt)    4.2
CC[C@H]1Oc2ccccc2[C@H]2CC[C@H](CC2)OCC2[C@@H](NS(C)(=O)=O)CCCN2C1=O (stereo in doubt)    97
Cc1ccc2c(c1C)[C@H]1CC[C@H](CC1)OCC1[C@@H](NS(=O)(=O)C(C)C)CCCN1C(=O)CO2 (stereo in doubt)    28

I = Cc1cccc2c1[C@H]1CC[C@H](CC1)OCC1[C@@H](NS(=O)(=O)C(C)C)CCN1C(=O)CO2 (stereo in doubt)
II = CS(=O)(=O)N[C@H]1CCCN2C(=O)COc3ccc(C#N)cc3[C@H]3CC[C@H](CC3)OCC12 (stereo in doubt)
III = O=S(=O)(N[C@H]1CCCN2CCOc3ccccc3[C@H]3CC[C@H](CC3)OCC12)C1CC1 (stereo in doubt)
Your job: order these 3 records by efflux ratio at 2 h, 3 μM, ascending. Thanks in advance for listing the labels in the requested order.
III, I, II

P = Cc1cccc2c1OCCN1CCC[C@H](NS(C)(=O)=O)C1CO[C@H]1CC[C@@H]2CC1 (stereo in doubt)
Q = CS(=O)(=O)N[C@H]1CCCN2C(=O)COc3ccc(O)cc3[C@H]3CC[C@H](CC3)OCC12 (stereo in doubt)
Could you determine which record has the numerically smaller efflux ratio at 2 h, 3 μM? Candidates: P and Q Your choice should be expressed through its label.
P
(P: 0.73, Q: 9.2)

1 = C=CS(=O)(=O)N[C@H]1CCCN2C(=O)COc3ccccc3C3CCC(CC3)OC[C@@H]12 (stereo in doubt)
2 = C[C@H](C(F)(F)F)S(=O)(=O)N[C@H]1CCCN2C(=O)COc3ccccc3C3CCC(CC3)OC[C@@H]12 (stereo in doubt)
Exercise: compare 1 and 2 ; which one has the greater efflux ratio at 2 h, 3 μM? Mark your selection by writing its label.
2

a = O=S(=O)(N[C@H]1CCCN2CCOc3ncccc3[C@H]3CC[C@H](CC3)OCC12)C1CC1 (stereo in doubt)
b = CC(C)S(=O)(=O)N[C@H]1CCN2C(=O)COc3ncccc3[C@H]3CC[C@H](CC3)OCC12 (stereo in doubt)
In terms of reported efflux ratio at 2 h, 3 μM, does a or b have the smaller number? In your reply, give the label of the chosen option.
a
(a: 1.4, b: 14)

1 = Cc1cccc2c1C1CCC(CC1)OC[C@H]1[C@@H](NS(C)(=O)=O)CCCN1C(=O)CO2 (stereo in doubt)
2 = Cc1ccc2c(c1)C1CCC(CC1)OC[C@H]1[C@@H](NS(=O)(=O)C3CC3)CCCN1C(=O)CO2 (stereo in doubt)
3 = O=C1COc2ccccc2[C@H]2CC[C@H](CC2)OCC2[C@@H](NS(=O)(=O)C(F)(F)F)CCN12 (stereo in doubt)
Reorder the items by efflux ratio at 2 h, 3 μM, least to greatest. Reply: labels, ordered per the request.
3, 1, 2
